B1: tRNA (parent)
chain: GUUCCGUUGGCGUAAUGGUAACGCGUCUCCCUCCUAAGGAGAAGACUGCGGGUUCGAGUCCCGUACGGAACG

- Variants of: B1
- RUN_DESCRIPTION: yeast fitness relative to wild type (ratio to wild type); higher = fitter; tRNA-Arg(CCU), competitive growth, 37 C, YPD
This sample holds only a part of the variants without activity.
Catalogue of yeast fitness values

{"MUTANT": "U64G A70U", "yeast fitness": 0.787}
{"MUTANT": "U2A C4A U13C C31A C49G A57G", "yeast fitness": "≤ 0.5"}
{"MUTANT": "G12C C31G G51A C55G A57G G68C", "yeast fitness": "≤ 0.5"}
{"MUTANT": "G18A G44A A57G", "yeast fitness": "≤ 0.5"}
{"MUTANT": "C24U U32G A40U U53C U64G", "yeast fitness": "≤ 0.5"}
{"MUTANT": "C22A U28G C31G A42U C61U", "yeast fitness": "≤ 0.5"}
{"MUTANT": "U32G A45G A69U", "yeast fitness": 0.553}
{"MUTANT": "A15C C31A G50A", "yeast fitness": "≤ 0.5"}
{"MUTANT": "G6A A15G U28G A42U G48A", "yeast fitness": "≤ 0.5"}
{"MUTANT": "U13C C29G A36G G41A G48C A57U", "yeast fitness": "≤ 0.5"}
{"MUTANT": "G10C C60U C62U A70C", "yeast fitness": "≤ 0.5"}
